Entry source: patent US20230150974A1

Biological target: HiBit-BRG1 (Homo sapiens, UniProt P51532)
Construct: expressed in transfected cells
Sequence (P51532 whole entry): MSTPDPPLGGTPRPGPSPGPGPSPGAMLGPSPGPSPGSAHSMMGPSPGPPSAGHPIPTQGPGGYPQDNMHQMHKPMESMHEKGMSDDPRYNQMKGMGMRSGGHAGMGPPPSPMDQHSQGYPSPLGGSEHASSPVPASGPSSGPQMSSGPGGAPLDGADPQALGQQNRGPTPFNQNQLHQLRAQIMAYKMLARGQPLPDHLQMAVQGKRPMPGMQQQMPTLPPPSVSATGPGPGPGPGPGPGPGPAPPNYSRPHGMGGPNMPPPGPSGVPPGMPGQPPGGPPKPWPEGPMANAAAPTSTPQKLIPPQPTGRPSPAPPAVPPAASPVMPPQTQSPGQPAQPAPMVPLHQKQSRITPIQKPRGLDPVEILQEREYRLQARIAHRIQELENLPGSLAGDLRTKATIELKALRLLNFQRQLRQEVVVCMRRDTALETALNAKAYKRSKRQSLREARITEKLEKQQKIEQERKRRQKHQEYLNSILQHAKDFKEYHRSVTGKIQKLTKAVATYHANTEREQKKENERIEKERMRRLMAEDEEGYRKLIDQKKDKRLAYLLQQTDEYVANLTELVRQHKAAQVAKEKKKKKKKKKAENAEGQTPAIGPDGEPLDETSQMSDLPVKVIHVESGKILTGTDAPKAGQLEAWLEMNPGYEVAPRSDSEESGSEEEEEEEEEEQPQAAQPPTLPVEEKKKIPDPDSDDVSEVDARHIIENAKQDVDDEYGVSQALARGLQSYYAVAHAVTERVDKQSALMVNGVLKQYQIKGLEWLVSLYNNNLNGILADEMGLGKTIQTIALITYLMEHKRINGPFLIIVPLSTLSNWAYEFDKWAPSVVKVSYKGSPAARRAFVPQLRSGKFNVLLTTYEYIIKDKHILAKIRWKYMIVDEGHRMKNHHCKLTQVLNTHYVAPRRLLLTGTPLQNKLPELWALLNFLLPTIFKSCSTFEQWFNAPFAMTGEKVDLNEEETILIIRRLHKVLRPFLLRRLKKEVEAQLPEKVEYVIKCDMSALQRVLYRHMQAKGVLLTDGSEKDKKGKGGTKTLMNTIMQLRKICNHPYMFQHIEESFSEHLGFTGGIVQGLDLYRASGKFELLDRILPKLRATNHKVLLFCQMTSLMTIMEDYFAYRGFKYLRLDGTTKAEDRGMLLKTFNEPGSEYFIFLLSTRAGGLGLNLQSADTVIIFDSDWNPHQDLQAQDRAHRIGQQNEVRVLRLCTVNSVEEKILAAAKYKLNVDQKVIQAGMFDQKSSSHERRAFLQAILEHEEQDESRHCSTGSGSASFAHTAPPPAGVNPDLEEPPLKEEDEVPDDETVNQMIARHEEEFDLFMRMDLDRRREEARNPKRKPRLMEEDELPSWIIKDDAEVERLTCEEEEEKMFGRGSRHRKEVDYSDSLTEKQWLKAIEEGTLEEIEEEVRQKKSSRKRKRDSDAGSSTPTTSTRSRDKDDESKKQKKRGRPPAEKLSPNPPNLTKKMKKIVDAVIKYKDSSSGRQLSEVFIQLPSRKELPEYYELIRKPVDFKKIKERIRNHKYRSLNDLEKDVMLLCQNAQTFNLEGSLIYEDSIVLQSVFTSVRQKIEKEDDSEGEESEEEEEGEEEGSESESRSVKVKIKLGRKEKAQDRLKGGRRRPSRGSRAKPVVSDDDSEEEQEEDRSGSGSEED
Test: HiBit-BRG1 cell-based degradation assay (Nano-Glo HiBiT Lytic Detection)
Conditions: HeLa cells expressing HiBit-BRG1 and LgBit, 24 h; read-out: BRG1 HiBit Degradation IC50
readout: DC50

Dear colleague, could you please provide DC50 for the compounds listed below?
1. Nc1nnc(-c2ccccc2O)cc1OCCc1ccc(CN2CCN(CCOc3cccc4c3C(=O)N(C3CCC(=O)NC3=O)C4=O)CC2)cc1 (centres unmarked) [Compound 126]
2. Cc1ncsc1-c1ccc(CNC(=O)[C@@H]2C[C@@H](O)CN2C(=O)[C@@H](NC(=O)COCCOCCNC(=O)CN2CCN(c3cc(-c4ccccc4O)nnc3N)CC2)C(C)(C)C)cc1 [Compound 100]
3. Cc1ncsc1-c1ccc([C@H](C)NC(=O)[C@@H]2C[C@@H](O)CN2C(=O)[C@@H](NC(=O)CCCCCCCCCCCCCCCC(=O)N(C)Cc2ccc(CCOc3cc(-c4ccccc4O)nnc3N)cc2)C(C)(C)C)cc1 [Compound 227]
4. Cc1ncsc1-c1ccc([C@H](C)NC(=O)[C@@H]2C[C@@H](O)CN2C(=O)[C@@H](c2cc(OCCN3[C@@H]4CC[C@H]3CN(C(=O)c3ccc(CCOc5cc(-c6ccccc6O)nnc5N)cc3)C4)no2)C(C)C)cc1 [Compound 221]
5. Cc1ncsc1-c1ccc([C@H](C)NC(=O)[C@@H]2C[C@@H](O)CN2C(=O)[C@@H](c2cc(OCCN3CCN(CCC(=O)NCc4ccc(CCOc5cc(-c6ccccc6O)nnc5N)cc4)CC3)no2)C(C)C)cc1 [Compound 175]

[A]
1. > 1000 nM
2. > 1000 nM
3. > 100 nM
4. < 10 nM
5. > 100 nM

* * *

Provide the reported DC50 of each item.
Biological target: HiBiT-BRM (Homo sapiens)
Construct: expressed in transfected cells
Sequence (P51531 whole entry): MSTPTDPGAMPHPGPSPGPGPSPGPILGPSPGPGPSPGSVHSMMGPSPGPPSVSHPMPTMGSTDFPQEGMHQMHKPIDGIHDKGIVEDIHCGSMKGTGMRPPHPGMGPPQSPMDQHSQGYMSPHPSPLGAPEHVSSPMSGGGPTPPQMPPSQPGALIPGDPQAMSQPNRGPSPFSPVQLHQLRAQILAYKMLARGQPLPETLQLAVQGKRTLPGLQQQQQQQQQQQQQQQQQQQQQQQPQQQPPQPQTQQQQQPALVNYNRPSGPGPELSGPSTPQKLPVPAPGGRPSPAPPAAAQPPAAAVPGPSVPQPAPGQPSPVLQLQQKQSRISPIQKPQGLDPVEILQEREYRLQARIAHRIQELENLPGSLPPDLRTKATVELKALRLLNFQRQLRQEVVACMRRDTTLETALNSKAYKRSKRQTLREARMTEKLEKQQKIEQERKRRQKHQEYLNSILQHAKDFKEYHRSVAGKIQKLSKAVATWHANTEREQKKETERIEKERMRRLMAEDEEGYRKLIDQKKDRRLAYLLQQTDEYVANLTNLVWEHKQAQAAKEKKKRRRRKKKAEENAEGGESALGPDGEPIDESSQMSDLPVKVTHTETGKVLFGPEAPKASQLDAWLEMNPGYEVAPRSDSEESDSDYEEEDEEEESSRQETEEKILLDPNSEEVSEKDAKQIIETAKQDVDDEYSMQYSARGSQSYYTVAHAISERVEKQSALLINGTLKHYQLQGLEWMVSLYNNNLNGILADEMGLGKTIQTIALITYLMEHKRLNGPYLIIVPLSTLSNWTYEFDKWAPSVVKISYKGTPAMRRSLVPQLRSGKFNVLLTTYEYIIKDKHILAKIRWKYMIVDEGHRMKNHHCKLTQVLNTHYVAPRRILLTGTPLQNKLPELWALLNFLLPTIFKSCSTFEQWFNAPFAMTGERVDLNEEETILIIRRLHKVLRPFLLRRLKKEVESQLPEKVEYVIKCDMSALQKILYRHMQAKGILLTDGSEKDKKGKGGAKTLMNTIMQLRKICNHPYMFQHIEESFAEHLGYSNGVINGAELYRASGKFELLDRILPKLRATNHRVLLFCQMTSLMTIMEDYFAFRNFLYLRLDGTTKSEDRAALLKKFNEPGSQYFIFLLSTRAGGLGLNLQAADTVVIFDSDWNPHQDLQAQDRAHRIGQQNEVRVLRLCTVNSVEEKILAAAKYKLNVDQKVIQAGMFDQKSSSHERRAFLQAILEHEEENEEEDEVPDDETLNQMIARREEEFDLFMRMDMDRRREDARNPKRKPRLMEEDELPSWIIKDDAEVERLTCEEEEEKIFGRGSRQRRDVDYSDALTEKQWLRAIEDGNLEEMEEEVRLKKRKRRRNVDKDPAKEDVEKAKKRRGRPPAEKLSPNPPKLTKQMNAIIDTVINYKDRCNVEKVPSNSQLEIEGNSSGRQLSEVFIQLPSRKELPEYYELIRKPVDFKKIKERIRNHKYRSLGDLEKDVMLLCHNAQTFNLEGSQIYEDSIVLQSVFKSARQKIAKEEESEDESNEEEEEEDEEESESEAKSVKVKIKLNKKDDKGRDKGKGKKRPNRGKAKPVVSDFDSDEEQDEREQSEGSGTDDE
Experiment: HiBiT-BRM cell-based degradation assay (Nano-Glo HiBiT Lytic Detection)
Details: HeLa cells expressing HiBiT-BRM, 24 h; read-out: BRM HiBit Degradation IC50

Dear colleague, could you please provide DC50 for the compounds listed below?
1. Cc1ncsc1-c1ccc(CNC(=O)[C@@H]2C[C@@H](O)CN2C(=O)[C@@H](NC(=O)CCN2CC3(CN(CCC(=O)NCc4ccc(CCOc5cc(-c6ccccc6O)nnc5N)cc4)C3)C2)C(C)(C)C)cc1
2. Cc1ncsc1-c1ccc(CNC(=O)[C@@H]2C[C@@H](O)CN2C(=O)[C@@H](NC(=O)CCCCCCC(=O)NCc2ccc(CCOc3cc(-c4ccccc4O)nnc3N)cc2)C(C)(C)C)cc1
3. Cc1ncsc1-c1ccc([C@H](C)NC(=O)[C@@H]2C[C@@H](O)CN2C(=O)[C@@H](c2cc(OCCN3CCC(OC4CCN(C(=O)c5ccc(CCOc6cc(-c7ccccc7O)nnc6N)cc5)CC4)CC3)no2)C(C)C)cc1
4. Cc1ncsc1-c1ccc(CNC(=O)[C@@H]2C[C@@H](O)CN2C(=O)[C@@H](NC(=O)CCN2CC(OC3CCN(C(=O)c4ccc(CCOc5cc(-c6ccccc6O)nnc5N)cc4)CC3)C2)C(C)(C)C)cc1

[A]
> 1 µM
> 0.1 µM
< 0.01 µM
> 1 µM

[Q] Requested read-out DC50, target or system HiBiT-BRM (Homo sapiens), entry Nc1nnc(-c2ccccc2O)cc1OCCc1ccc(C(=O)NCCCCCCCCCCCCCCC(=O)NCc2ccc(S(=O)(=O)Nc3cccc4c(Cl)c[nH]c34)cc2)cc1
[A] > 1 µM

* * *

Target: HiBit-BRG1 (Homo sapiens)
Construct: expressed in transfected cells
Experiment: HiBit-BRG1 cell-based degradation assay (Nano-Glo HiBiT Lytic Detection)
Conditions: HeLa cells expressing HiBit-BRG1 and LgBit, 24 h; read-out: BRG1 HiBit Degradation Maximum (%)
Provide the reported Dmax of each item.

Dear colleague, could you please provide Dmax for the compounds listed below?
1. Cc1ncsc1-c1ccc(CNC(=O)[C@@H]2C[C@@H](O)CN2C(=O)[C@@H](NC(=O)COCCOCCOCCOCCOCCNC(=O)c2ccc(CCOc3cc(-c4ccccc4O)nnc3N)cc2)C(C)(C)C)cc1
2. Cc1ncsc1-c1ccc(CNC(=O)[C@@H]2C[C@@H](O)CN2C(=O)[C@@H](NC(=O)COCCOCCOCCNC(=O)CN2CCN(c3cc(-c4ccccc4O)nnc3N)CC2)C(C)(C)C)cc1
3. Cc1ncsc1-c1ccc(CNC(=O)[C@@H]2C[C@@H](O)CN2C(=O)[C@@H](NC(=O)CCCOCCOCCNC(=O)c2ccc(CCOc3cc(-c4ccccc4O)nnc3N)cc2)C(C)(C)C)cc1
4. Cc1ncsc1-c1ccc(CNC(=O)[C@@H]2C[C@@H](O)CN2C(=O)[C@@H](NC(=O)CCCCCCCCCNCc2ccc(CCNc3cc(-c4ccccc4O)nnc3N)cc2)C(C)(C)C)cc1
5. Cc1ncsc1-c1ccc(CNC(=O)[C@@H]2C[C@@H](O)CN2C(=O)[C@@H](NC(=O)CCCC(=O)NCc2ccc(CCOc3cc(-c4ccccc4O)nnc3N)cc2)C(C)(C)C)cc1

[A]
< 50%
< 50%
< 50%
> 50%
< 50%

* * *

Target: HiBit-BRG1 (Homo sapiens)
Construct: expressed in transfected cells
Experiment: HiBit-BRG1 cell-based degradation assay (Nano-Glo HiBiT Lytic Detection)
Details: HeLa cells expressing HiBit-BRG1 and LgBit, 24 h; read-out: BRG1 HiBit Degradation IC50
Provide the reported DC50 of each item.

Answered cases to consult:
molecule	DC50
Nc1nnc(-c2ccccc2O)cc1N1CCN(CCNC(=O)CCCCCCCCNc2ccc3c(c2)C(=O)N(C2CCC(=O)NC2=O)C3=O)CC1 (stereo not drawn)	> 1000 nM
Cc1ncsc1-c1ccc(CNC(=O)[C@@H]2C[C@@H](O)CN2C(=O)[C@@H](NC(=O)CCN2[C@@H]3CC[C@H]2CN(C(=O)c2ccc(CCOc4cc(-c5ccccc5O)nnc4N)cc2)C3)C(C)(C)C)cc1	> 1000 nM

Moving on to another molecule below.
[Q] Entry under review: Cc1ncsc1-c1ccc([C@H](C)NC(=O)[C@@H]2C[C@@H](O)CN2C(=O)[C@@H](NC(=O)CCN2C[C@H]3CN(CCC(=O)NCc4ccc(CCOc5cc(-c6ccccc6O)nnc5N)cc4)C[C@H]3C2)C(C)(C)C)cc1 . Reported DC50?
[A] > 1000 nM

* * *

Provide the reported Dmax of each item.
Target: HiBit-BRG1 (Homo sapiens)
Construct: expressed in transfected cells
Test: HiBit-BRG1 cell-based degradation assay (Nano-Glo HiBiT Lytic Detection)
Settings: HeLa cells expressing HiBit-BRG1 and LgBit, 24 h; read-out: BRG1 HiBit Degradation Maximum (%)

Answered cases to consult:
compound	Dmax
Nc1nnc(-c2ccccc2O)cc1OCCc1ccc(CNCCCOc2cccc3c2C(=O)N(C2CCC(=O)NC2=O)C3=O)cc1 (stereo not shown)	> 50%
Nc1nnc(-c2ccccc2O)cc1N1CCN(CC(=O)NCCCCCNc2ccc3c(c2)C(=O)N(C2CCC(=O)NC2=O)C3=O)CC1 (stereo not shown)	> 50%
Nc1nnc(-c2ccccc2O)cc1OCCc1ccc(C(=O)NCCCCCOc2cccc3c2C(=O)N(C2CCC(=O)NC2=O)C3=O)cc1 (stereo not shown)	< 50%

Moving on to another compound below.
[Q] Entry under review: Cc1ncsc1-c1ccc(CNC(=O)[C@@H]2C[C@@H](O)CN2C(=O)[C@@H](NC(=O)CCCCCCCCCCCCCCC(=O)N(C)Cc2ccc(CCOc3cc(-c4ccccc4O)nnc3N)cc2)C(C)(C)C)cc1 . Reported Dmax?
[A] < 50%
